Provenance of the data: patent US20240415914A1

- Assay Explanation: Stability of cannabinoid and Vitamin E components of Beverage 1 (AB White) stored at 8° C. and 21-25° C., LCMSMS over 570 days
- Assay type: physicochemical
- Applied Conditions: beverage stored at 21-25° C., day 540
We'd kindly ask you to apply these Stability in AB White, 21-25° C. (content by LCMSMS) classes: low group = under 0.5 µg/mL, middle group = from 0.5 µg/mL up to 3 µg/mL, high group = 3 µg/mL and over

Check out these entries, answers already filled in.
>>> class("CCCCCc1cc(O)c(C/C=C(\\C)CCC=C(C)C)c(O)c1")
"high group"
>>> class("CCCCCc1cc2c(c(O)c1C(=O)O)[C@@H]1C=C(C)CC[C@H]1C(C)(C)O2 [D9 THCA, delta-9-tetrahydrocannabinolic acid]")
"middle group"

Prompt: # classify by Stability in AB White, 21-25° C. (content by LCMSMS) band: CCCCCc1cc(O)c2c(c1)OC(C)(CCC=C(C)C)C=C2 (stereo not drawn)
Completion: low group

Prompt: Where would `CCCCCc1cc(O)c2c(c1)OC(C)(C)c1ccc(C)cc1-2` land among the classes by reported Stability in AB White, 21-25° C. (content by LCMSMS)?
Completion: middle group

Prompt: Hello team, could you let me know which band the following compound falls into: CCCCCc1cc(O)c2c(c1)OC(C)(C)[C@@H]1CCC(C)=C[C@@H]21 [D9 THC, delta-9-tetrahydrocannabinol, reference compound]
Completion: high group

Prompt: Input `C=C(C)[C@@H]1CCC(C)=C[C@H]1c1c(O)cc(CCC)cc1O` ; output its category
Completion: low group

Prompt: Class for CCCc1cc(O)c2c(c1)OC(C)(C)[C@@H]1CCC(C)=C[C@@H]21 [THCV, delta-9-tetrahydrocannabivarin] ?
Completion: high group

Prompt: State the band of `C=C(C)[C@@H]1CCC(C)=C[C@H]1c1c(O)cc(CCCCC)c(C(=O)O)c1O`
Completion: middle group
